Reported z-score values for a set of compounds
test_details: kinase inhibitors altering Pseudomonas killing of worms, whole organism (AID 651566);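 further: tested at 14 µM; sign flipped so higher z means a lower ratio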
assay_conditions: C. elegans killed by P. aeruginosa, survival ratio
// return just the number, without any unit appended

Field: example entries. Status: answers known.
1. COc1cc(C)c(N(C)C(=O)CN(C)C)cc1Nc1nc(Nc2cccc(F)c2C(N)=O)c2cc[nH]c2n1 : 0.1
2. CN(C)CCNC(=O)Nc1ccc(N(C)c2ccnc(Nc3ccc(CS(C)(=O)=O)cc3)n2)cc1 : -0.12
3. CS(=O)(=O)CCNCc1ccc(-c2ccc3ncnc(Nc4ccc(OCc5ccccc5)c(Br)c4)c3c2)o1 : 0.135
4. Cc1ccc(NC(=O)c2ccoc2)cc1-c1ccc(C(=O)NCC2CC2)cc1 : 0.02
5. OCCCNc1nccc(-c2c(-c3ccc(F)cc3)nn3cc(C(F)(F)F)ccc23)n1 : 0.765

# return recorded z-score for input CS(=O)(=O)CCNCc1ccc(-c2ccc3ncnc(Nc4ccc(OCc5ccccc5)cc4)c3c2)o1
0.41

For CCn1c(-c2nonc2N)nc2c(C#CC(C)(C)O)nc(OC[C@H](N)c3ccccc3)cc21 , write its z-score.
0.015

Specify measured z-score for Fc1ccc(-c2ncn(C3CCNCC3)c2-c2ccnc(Oc3cccc(C(F)(F)F)c3)n2)cc1 .
0.19

Entry CCS(=O)(=O)c1ccc(OC)c(Nc2ncc(-c3ccccc3Cl)o2)c1 needs its z-score filled in; supply it.
-0.335

For the compound COc1cc2ncn(-c3cc(OCc4ccccc4S(C)(=O)=O)c(C#N)s3)c2cc1OC , report z-score.
-0.355

Output z-score of CCS(=O)(=O)c1ccc(OC)c(Nc2ncc(-c3cccc(OC)c3)o2)c1
0.285

Provide z-score value for the following compound: Fc1ccc(-c2nn3ncccc3c2-c2ccnc(Nc3ccc4c(c3)OCCO4)n2)cc1
-0.41

Supply recorded z-score for O=S1CCN(Cc2ccc(-c3ccc4ncnc(Nc5ccc(OCc6ccccc6)c(F)c5)c4c3)o2)CC1 here.
-0.505

State its z-score for this compound: CN(C)C(=O)O[C@H]1CN[C@H](C#Cc2cc3ncnc(Nc4ccc(OCc5cccc(F)c5)c(Cl)c4)c3s2)C1
0.225

Quickly give me recorded z-score for NC(=O)c1sc(-n2cnc3ccc(C(F)(F)F)cc32)cc1OCc1ccccc1Br
-0.455

###

test_details: IRF3 reporter activation in THP-1 macrophages, cell-based, PMA-stimulated THP-1, luminescence (AID 1053176)
assay_conditions: PMA-differentiated THP-1, IRF3 reporter luminescence; hits give high values
The label depends only on fraction signal: yes (1) if it is at least -0.007, no (0) if it is smaller.

Examples from the recorded data:
1) O=C1Nc2ccc(-c3cccnc3)cc2/C1=C\c1cc(Br)c(O)c(Br)c1 : yes (1)
2) Fc1ccc(-c2cc(C3CNNC3c3ccccn3)ccn2)cc1 (stereo not given) : yes (1)
3) COc1cccc(-n2ncc3c(N/N=C/c4ccncc4)ncnc32)c1 : yes (1)
4) Cc1cc(O)cc(C)c1/C=C/c1cncc(C(=O)N(C)C)c1 : yes (1)
5) COc1cc2c(cc1Nc1nc(N3CCc4ccccc43)c3cc[nH]c3n1)N(C(=O)CN(C)C)CC2 : no (0)

Check the entry COc1cc[nH]c1C=C1C(=O)Nc2ccccc21 : does fraction signal equal or exceed -0.007?
no (0)

Does the reported fraction signal for Nc1c(C(=O)c2cccc(CCCN3CCOCC3)c2)cnn1-c1ccc(F)cc1 fall at or above the -0.007 mark?
yes (1)

Please indicate if the recorded fraction signal for CCC(=O)Nc1ccc(C)c(-c2ccc(C(=O)NCC3CC3)cc2)c1 meets or exceeds -0.007.
yes (1)

Quick check: does CN1CCN(CCc2cccc(C(=O)c3cnn(-c4ccc(F)cc4)c3N)c2)CC1 have fraction signal greater than or equal to -0.007?
yes (1)

Is the recorded value of fraction signal equal to or greater than -0.007 for this compound? CCn1c(-c2nonc2N)nc2ccc(F)cc21
yes (1)

Hi, just wondering whether Cn1c(=O)c(Cc2ccc(F)cc2F)cc2cnc(NC3CCOCC3)nc21 shows fraction signal of -0.007 or higher.
yes (1)

# check: fraction signal of COc1ccc(CCN=C2NC(=O)C(=Cc3ccc4ncccc4c3)S2)cc1 is greater than or equal to -0.007
yes (1)

Answer whether fraction signal of c1cc(-c2cnn3nc(N4CCOCC4)ccc23)nc(NC2CC2)n1 is greater than or equal to -0.007.
no (0)

Answer whether fraction signal of Fc1ccc(-c2c(-c3ccncc3)n(CCN3CCOCC3)c3cccnc23)cc1 is greater than or equal to -0.007.
no (0)

Exam item: decide whether the reported fraction signal for CN1C(=O)C(c2c[nH]c3ccccc23)=C(c2c[nH]c3ccccc23)C1=O is at least -0.007.
no (0)

Dear colleague, could you confirm whether COc1ccc(C2=C(c3cn(C)c4ccccc34)C(=O)NC2=O)cc1 has fraction signal at or above -0.007?
no (0)

Hi, just wondering whether NS(=O)(=O)c1ccc(N=Nc2c(O)[nH]c3ccc(Cl)cc23)cc1 shows fraction signal of -0.007 or higher.
yes (1)

###

test_details: stimulators of insulin release from INS-1E, primary screen, cell-based, 5 mM glucose, NPC library (AID 1117329)
assay_conditions: rat INS-1E insulin secretion, at 10 µM
Activity calls are given as the source filed them.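 Rule for the calls: active = compound raises insulin release from rat beta cells at 5 mM glucose, no numeric limit stated; inactive = the rest.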
Tick one outcome: True = active, False = inactive

1. Clc1ccc2c(c1)C(N1CCNCC1)=Nc1ccccc1O2 : False
2. NCC(=O)CCC(=O)O : False
3. C[C@@H](O)[C@H]1C(=O)N2C(C(=O)O)=C(S[C@@H]3CN[C@H](CNS(N)(=O)=O)C3)[C@H](C)[C@H]12 : False
4. CCOC(=O)[C@H](CCc1ccccc1)N[C@@H](C)C(=O)N1Cc2ccccc2C[C@H]1C(=O)O : False
5. Nc1c(N=Nc2ccc(-c3ccc(N=Nc4cc(S(=O)(=O)O)c5ccccc5c4N)cc3)cc2)cc(S(=O)(=O)O)c2ccccc12 : False
6. O=C(O)CCCC[P+](c1ccccc1)(c1ccccc1)c1ccccc1 : False
7. NC(=S)N/N=C/c1cccnc1 : False
8. CC(=O)SC[C@@H](Cc1ccccc1)C(=O)NCC(=O)OCc1ccccc1 : False

What outcome does the record of this test show for c1ccc2sc(SN3CCOCC3)nc2c1 ?
False

I'd appreciate the recorded outcome for NC[C@H]1O[C@H](O[C@H]2[C@@H](O)[C@@H](O[C@H]3O[C@H](CO)[C@@H](O)[C@H](N)[C@@H]3O)[C@H](N)C[C@@H]2N)[C@H](N)C[C@H]1O from this test.
False

Per the records of this test, what outcome belongs to Nc1c(I)cc(I)c(C(=O)N(CCC(=O)O)c2ccccc2)c1I ?
False

Look up the recorded call for CC(=O)N(CC(=O)N(C)C)c1ccccc1 in this test.
False

###

test_details: Cy5 fluorescence quenching or enhancement artefacts, artefact control for HCV NS3 helicase inhibitor project, biochemical, LOPAC1280 (AID 687037)
assay_conditions: Cy5-DNA-NS3h complex fluorescence interference counterscreen
Property: fluorescence ratio (interference); scope: individual compounds
The answer should be written as a number, with no unit following it.

1) CCCCNC(=O)NS(=O)(=O)c1ccc(C)cc1 : 1
2) CN(C)c1cc2c(Nc3ccc4c(cnn4Cc4ccccc4)c3)ncnc2cn1 : 1
3) COc1cc2nc(N3CCN(C(=O)c4ccco4)CC3)nc(N)c2cc1OC : 0.9
4) CCN(CC)CCNC(=O)c1ccc(N)cc1 : 1
5) NC(N)=NC(=O)c1nc(Cl)c(N)nc1N : 0.9

Hello, please tell me recorded fluorescence ratio (interference) for this one: CN=C(NC#N)NCCSCc1nc[nH]c1C
1

Give the reported fluorescence ratio (interference) for this compound. CC12CC3CC(C)(C1)CC(N)(C3)C2
1

Using the record for O=C1NC(=O)C(c2ccccc2)(c2ccccc2)N1 , state its measured fluorescence ratio (interference).
1

Give the value of fluorescence ratio (interference) reported for the following: CCCNCC(O)COc1ccccc1C(=O)CCc1ccccc1 (stereo unspecified)
1

Respond only with fluorescence ratio (interference) recorded for CCOC(=O)N1CCC(=C2c3ccc(Cl)cc3CCc3cccnc32)CC1
1

Give fluorescence ratio (interference) for CC(C)(C)NCC(O)c1cc(O)cc(O)c1 (stereo unspecified)
1

###

test_details: inhibition of endothelial tube formation, primary screen, imaging, VEGF stimulated, CD31 staining, tube area, NPC library (AID 1117340)
assay_conditions: VEGF-stimulated ADSC/ECFC co-culture, at 10 µM, hits give high values
parameter: tube area decrease (%)
Quick note: give the figure in %, leave out the unit.

// worked examples, tube area decrease included
1. Oc1ccc(CCNCCCCCCNCCc2ccccc2)cc1O : 31.4
2. CCCCC(CC)CNC(=O)CC(C)OC(=O)CCC(=O)O (centres undefined) : 0.6
3. CC(=O)CC(c1ccccc1)c1c(O)c2ccccc2oc1=O (centres undefined) : -0.7
4. COc1ccnc2c1CCCCC2S(=O)c1nc2ccccc2[nH]1 (centres undefined) : 13.2
5. CC(C=CC1=C(C)CCCC1(C)C)=CC=CC(C)=CC(=O)Oc1c(C)c(C)c2c(c1C)CC[C@@](C)(CCC[C@H](C)CCC[C@H](C)CCCC(C)C)O2 : -4.2
6. NC[C@@H]1O[C@H](O[C@H]2[C@H](O)[C@H](O[C@H]3[C@@H](O)[C@H](N)C[C@H](N)[C@H]3O[C@H]3O[C@H](CN)[C@H](O)[C@H](O)[C@H]3N)O[C@@H]2CO)[C@@H](N)[C@@H](O)[C@@H]1O : -22.4
7. CC(=O)S[C@@H]1CC2=CC(=O)CC[C@]2(C)[C@H]2CC[C@@]3(C)[C@@H](CC[C@@]34CCC(=O)O4)[C@H]12 : 17
8. Clc1cccc(Cl)c1NC1=NCCN1 : -5.1

Turning now to a further record.
Identify tube area decrease associated with the compound O=S(=O)(O)c1ccc(O)cc1
5.3
